subject-of-test: chicken bombesin receptor subtype-3 (chicken (Gallus gallus))
test-method-notes: radioligand binding; displacement of 50 pM [125I]-Tyr-NMB by unlabeled peptide on disaggregated transfected HEK293 cells; 1 h at 21°C; 24.5 mM HEPES pH 7.4, 98 mM NaCl; bound tracer separated by centrifugation
Where no end group is shown, it is not given here.
metric: IC50 (pM)
Write the number in pM without appending the unit.

Task: What IC50 value was documented for this binder, APLQPGGSPALTKIYPRGSHWAVGHLM (ends and bridges not checked) [gastrin-releasing peptide, unlabeled ligand peptide of the radioligand binding assays] ?
Output: 180

From: paper PMC6422423
